src = patent US4161598A

Test system: acetylcholine
Method description: Anti-acetylcholine Writhing Test
Assay type: in vivo, mice
Reported conditions: Mus musculus, sc, 20 min, subcutaneous; form tested not given; read-out: Subcutaneous ED50 (95% Confidence Limits)
Method: This response has also been called writhing. Animals are pretreated with test compounds (20 minutes for both subcutaneous and oral routes) and observed for two minutes immediately following the administration of acetylcholine. Mice not responding during the two-minute observation period are scored protected while those responding one or more times are scored not protected. Test compounds are screened at doses of 75 and 25 mg./kg. subcutaneously or 150 and 50 mg./kg. orally. […]
Structures can show the parent of a compound that is named as a salt.
Parameter: ED50 (mg/kg)
Provide only the numeric value, understood in mg/kg.

Known ED50 results, listed for orientation:
1. CCCC(=O)Oc1ccc2c(c1)[C@]1(C)CCN(CC3CC3)[C@H](C2=O)[C@@H]1C (relative stereo) [Example 4, hydrochloride]
0.14
2. C[C@H]1[C@H]2C(=O)c3ccc(OC(=O)CC(C)(C)C)cc3[C@]1(C)CCN2CC1CC1 (relative stereo) [Example 8]
0.08
3. C=CCN1CC[C@@]2(C)c3cc(O)ccc3C(=O)[C@@H]1[C@@H]2C (relative stereo) [Example 16]
1.5

Asked: Sample CC(C)C(=O)Oc1ccc2c(c1)[C@]1(C)CCN(CC3CC3)[C@H](C2=O)[C@@H]1C (relative stereo) [Example 6] — what was its ED50?
Given back: 0.09

Asked: Please give the measured ED50 for this molecule: CC[C@@]12CCN(CC3CC3)[C@@H](C1)C(=O)c1ccc(O)cc12 (relative stereo) [Example 28C, hydrochloride]
Given back: 0.38

Asked: What value of ED50 has been reported for the following molecule? C[C@H]1[C@H]2C(=O)c3ccc(OC(=O)C(C)(C)C)cc3[C@]1(C)CCN2CC1CC1 (relative stereo) [Example 5]
Given back: 0.06

Asked: Dear colleague, I am looking for the recorded ED50 of the following molecule: CCC[C@]12CCN(CC3CC3)[C@H](C(=O)c3ccc(O)cc31)[C@@H]2C (relative stereo) [Example 32C]
Given back: 1.5
